Parameter IC50: see the listing below.
- Tested on: HT29
- experimental.details: MTT cytotoxicity assay, HT29
- Assay type: cell-based
- run.conditions: Homo sapiens, HT-29, 72 h, read-out: IC50 ± SD, HT29
I only need the number, in nM, no unit after it.

# compound, reading.unit, IC50
data = [
    ("N#Cc1c(NC(=O)Nc2ccc(F)cc2)c(C(=O)Nc2ccccc2)n2c1CCC2 [Compound 18a]", "nM", 9130),
    ("Cc1ccc(NC(=O)c2c(NC(=S)Nc3cccc4ccccc34)c(C#N)c3n2CCC3)cc1 [Compound 20b]", "nM", 3830),
    ("CCCCCCNC(=O)Nc1c(C#N)c2n(c1C(=O)Nc1ccc(C)cc1)CCC2 [Compound 16b]", "nM", 1560),
]

// switching to the query compound
If you can, please state the reported IC50 value of N#Cc1c(NC(=O)Nc2cccc3ccccc23)c(C(=O)Nc2ccccc2)n2c1CCC2 [Compound 19a] .
200

# credit: paper PMC7594867
